target: PhKgamma 2 (h) (Homo sapiens (Human), UniProt P15735); assay: Kinase selectivity panel: PhKgamma 2 (h); assay type: biochemical; settings: 10 μM in duplicate, read-out: % inhibition of control values
Sequence (P15735 whole entry): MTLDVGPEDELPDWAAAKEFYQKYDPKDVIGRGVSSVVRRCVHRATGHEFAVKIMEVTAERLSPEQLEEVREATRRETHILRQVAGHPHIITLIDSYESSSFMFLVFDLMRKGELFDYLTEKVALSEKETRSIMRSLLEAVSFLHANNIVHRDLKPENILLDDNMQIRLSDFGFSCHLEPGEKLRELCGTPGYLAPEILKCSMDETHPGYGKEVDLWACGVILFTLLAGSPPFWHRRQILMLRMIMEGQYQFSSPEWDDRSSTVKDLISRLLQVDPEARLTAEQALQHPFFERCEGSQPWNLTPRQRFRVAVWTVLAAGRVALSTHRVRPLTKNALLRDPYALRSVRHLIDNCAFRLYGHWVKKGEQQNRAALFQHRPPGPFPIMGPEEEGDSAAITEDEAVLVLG
As shown below, each of these molecules has a reported inhibition at 10 µM value.
Use % as the unit, but write only the number.

Fill in: inhibition at 10 µM of `COCCN1CCC(CNC(=O)c2n[nH]c3ccc(OC)cc23)CC1` is ___
1

Continue with `COc1ccc2[nH]nc(C(=O)NCC3CCN(CCC(=O)O)CC3)c2c1`
1

***
Need inhibition at 10 µM, item `COc1ccc2[nH]nc(C(=O)NCC3CCN(CC(=O)O)CC3)c2c1`
30

Now this one: `COCCN1CCC(CNC(=O)c2n[nH]c3ccc(-c4cccc(F)c4F)cc23)CC1`
0

Origin of measurements: patent US9611249B2
